The entries below come with measured ka2 (1/RUs) values attached.
system: mAb 7D8; test: Surface plasmon resonance of mAb 7D8 binding to amino-coupled peptopes; conditions: Bivalent Analyte; 7D8 2.7 nM
Measured metric: ka2 (1/RUs)

Sequence string: KAQKAQAKQAKQAQKAQKAQAKQAKQAQHEDT [p75, KAQKAQAKQAKQAQKAQKAQAKQAKQAQHEDT]
Value: 8.22E−04 1/RUs
//
Sequence string: KAQKAQAKQAKQAQKAQKAQAKQAKQVTVHEDT [p78, KAQKAQAKQAKQAQKAQKAQAKQAKQVTVHEDT]
Value: 1.10E−07 1/RUs
//
Sequence string: KAQKAQAKQAKQAQKAQKAQAKQAKQGPGHEDT [p77, KAQKAQAKQAKQAQKAQKAQAKQAKQGPGHEDT]
Value: 3.76E−05 1/RUs
//
Sequence string: KAQKAQAKQAKQAQKAQKAQAKQAKQGGGHEDT [p76, KAQKAQAKQAKQAQKAQKAQAKQAKQGGGHEDT]
Value: 2.38E−03 1/RUs

====

test system: mAb 7D8; test: Surface plasmon resonance of mAb 7D8 binding to amino-coupled peptopes; details: Bivalent Analyte; 7D8 2.7 nM

Sequence string: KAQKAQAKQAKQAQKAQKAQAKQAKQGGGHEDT [p76, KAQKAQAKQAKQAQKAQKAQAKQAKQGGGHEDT]
Target desc: mAb 7D8
Value unit: RU
Rmax (RU): 861
//
Sequence string: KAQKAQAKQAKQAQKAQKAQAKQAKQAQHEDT [p75, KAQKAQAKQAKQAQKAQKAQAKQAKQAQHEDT]
Target desc: mAb 7D8
Value unit: RU
Rmax (RU): 4.79E+03
//
Sequence string: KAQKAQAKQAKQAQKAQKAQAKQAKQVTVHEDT [p78, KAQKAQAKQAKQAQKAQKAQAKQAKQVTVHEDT]
Target desc: mAb 7D8
Value unit: RU
Rmax (RU): 9.16E+03
//
Sequence string: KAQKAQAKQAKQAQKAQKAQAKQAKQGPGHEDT [p77, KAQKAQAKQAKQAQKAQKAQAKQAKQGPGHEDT]
Target desc: mAb 7D8
Value unit: RU
Rmax (RU): 5.43E+03

====

system: mAb 7D8; assay: Surface plasmon resonance of mAb 7D8 binding to amino-coupled peptopes; settings: Langmuir; 7D8 2.7 nM

Sequence string: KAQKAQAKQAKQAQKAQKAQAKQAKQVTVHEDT [p78, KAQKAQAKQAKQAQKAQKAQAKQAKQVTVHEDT]
Req (RU): 331
//
Sequence string: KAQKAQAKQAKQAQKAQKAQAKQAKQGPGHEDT [p77, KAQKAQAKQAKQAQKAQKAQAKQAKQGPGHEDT]
Req (RU): 223
//
Sequence string: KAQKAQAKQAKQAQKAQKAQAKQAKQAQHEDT [p75, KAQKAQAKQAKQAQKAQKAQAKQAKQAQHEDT]
Req (RU): 654
//
Sequence string: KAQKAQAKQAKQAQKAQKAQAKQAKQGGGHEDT [p76, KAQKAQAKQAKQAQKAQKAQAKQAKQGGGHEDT]
Req (RU): 191

====

target: mAb 7D8; assay: Surface plasmon resonance of mAb 7D8 binding to amino-coupled peptopes; conditions: Langmuir; 7D8 2.7 nM
The entries below come with measured kd values attached.
Measured metric: kd (s⁻¹)

Sequence string: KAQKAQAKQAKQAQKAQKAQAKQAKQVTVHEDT [p78, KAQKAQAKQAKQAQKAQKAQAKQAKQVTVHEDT]
Measured metric: kd
Value unit: s⁻¹
Value: 0.00598
--
Sequence string: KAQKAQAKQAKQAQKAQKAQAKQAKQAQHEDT [p75, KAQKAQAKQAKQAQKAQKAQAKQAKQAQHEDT]
Measured metric: kd
Value unit: s⁻¹
Value: 0.00233
--
Sequence string: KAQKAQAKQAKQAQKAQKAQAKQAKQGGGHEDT [p76, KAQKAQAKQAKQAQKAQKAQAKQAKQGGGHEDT]
Measured metric: kd
Value unit: s⁻¹
Value: 0.00667
--
Sequence string: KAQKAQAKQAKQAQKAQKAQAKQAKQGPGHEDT [p77, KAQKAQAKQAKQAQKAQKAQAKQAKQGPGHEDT]
Measured metric: kd
Value unit: s⁻¹
Value: 0.00498

====

tested on: mAb 7D8; test: Surface plasmon resonance of mAb 7D8 binding to amino-coupled peptopes; settings: Langmuir with Mass Transfer; 7D8 2.7 nM
The entries below come with measured KA values attached.

Sequence string: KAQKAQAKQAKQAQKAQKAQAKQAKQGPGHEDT [p77, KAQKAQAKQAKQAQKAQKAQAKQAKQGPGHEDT]
KA [M⁻¹]: 3e+08
//
Sequence string: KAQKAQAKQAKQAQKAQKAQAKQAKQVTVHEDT [p78, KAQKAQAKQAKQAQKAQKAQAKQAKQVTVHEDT]
KA [M⁻¹]: 6.85e+08
//
Sequence string: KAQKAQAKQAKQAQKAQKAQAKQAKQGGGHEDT [p76, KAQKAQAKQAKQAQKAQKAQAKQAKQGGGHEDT]
KA [M⁻¹]: 6.33e+08
//
Sequence string: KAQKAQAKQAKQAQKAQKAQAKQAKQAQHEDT [p75, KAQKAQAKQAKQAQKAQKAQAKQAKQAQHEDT]
KA [M⁻¹]: 6.98e+08

====

biological target: mAb 7D8; assay: Surface plasmon resonance of mAb 7D8 binding to amino-coupled peptopes; settings: Bivalent Analyte; 7D8 2.7 nM
The entries below come with measured kd2 values attached.

Sequence string: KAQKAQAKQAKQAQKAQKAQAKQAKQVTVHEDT [p78, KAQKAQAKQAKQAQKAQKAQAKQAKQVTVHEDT]
Value unit: s⁻¹
kd2: 2.63e-05
//
Sequence string: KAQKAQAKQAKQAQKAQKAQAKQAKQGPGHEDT [p77, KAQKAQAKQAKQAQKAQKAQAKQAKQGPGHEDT]
Value unit: s⁻¹
kd2: 0.0224
//
Sequence string: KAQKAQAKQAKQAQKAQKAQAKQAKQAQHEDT [p75, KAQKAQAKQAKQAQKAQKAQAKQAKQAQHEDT]
Value unit: s⁻¹
kd2: 0.0628
//
Sequence string: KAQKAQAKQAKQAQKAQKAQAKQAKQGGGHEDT [p76, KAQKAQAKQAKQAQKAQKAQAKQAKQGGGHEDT]
Value unit: s⁻¹
kd2: 0.0774

====

biological target: mAb 7D8; experiment: Surface plasmon resonance of mAb 7D8 binding to amino-coupled peptopes; conditions: Langmuir with Mass Transfer; 7D8 2.7 nM
Measured metric: kd (s⁻¹)

Sequence string: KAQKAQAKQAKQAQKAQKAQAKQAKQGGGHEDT [p76, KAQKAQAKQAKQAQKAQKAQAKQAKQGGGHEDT]
Measured metric: kd
Value unit: s⁻¹
Value: 0.0137

Sequence string: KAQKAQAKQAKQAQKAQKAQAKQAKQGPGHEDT [p77, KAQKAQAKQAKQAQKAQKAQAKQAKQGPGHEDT]
Measured metric: kd
Value unit: s⁻¹
Value: 0.653

Sequence string: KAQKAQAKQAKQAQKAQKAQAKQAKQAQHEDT [p75, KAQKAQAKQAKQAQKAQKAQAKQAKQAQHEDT]
Measured metric: kd
Value unit: s⁻¹
Value: 0.00853

Sequence string: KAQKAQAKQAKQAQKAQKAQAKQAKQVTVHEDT [p78, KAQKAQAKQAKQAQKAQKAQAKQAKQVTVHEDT]
Measured metric: kd
Value unit: s⁻¹
Value: 0.0188

====

The entries below come with measured kobs values attached.
system: mAb 7D8; test: Surface plasmon resonance of mAb 7D8 binding to amino-coupled peptopes; conditions: Langmuir; 7D8 2.7 nM

Sequence string: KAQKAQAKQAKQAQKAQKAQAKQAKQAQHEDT [p75, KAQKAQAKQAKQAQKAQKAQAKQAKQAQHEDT]
kobs [s⁻¹]: 0.00333
//
Sequence string: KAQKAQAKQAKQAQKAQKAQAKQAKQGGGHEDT [p76, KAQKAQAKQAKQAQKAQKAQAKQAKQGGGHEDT]
kobs [s⁻¹]: 0.0146
//
Sequence string: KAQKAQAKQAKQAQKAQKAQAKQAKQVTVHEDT [p78, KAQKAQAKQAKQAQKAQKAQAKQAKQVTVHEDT]
kobs [s⁻¹]: 0.0125
//
Sequence string: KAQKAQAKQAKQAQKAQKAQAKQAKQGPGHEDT [p77, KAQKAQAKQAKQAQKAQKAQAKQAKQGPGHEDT]
kobs [s⁻¹]: 0.00512

====

The entries below come with measured ka values attached.
tested on: mAb 7D8; experiment: Surface plasmon resonance of mAb 7D8 binding to amino-coupled peptopes; details: Langmuir with Mass Transfer; 7D8 2.7 nM

Sequence string: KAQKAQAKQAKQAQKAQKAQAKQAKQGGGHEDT [p76, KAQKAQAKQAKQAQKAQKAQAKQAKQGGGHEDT]
ka, M⁻¹ s⁻¹: 8.96e+06

Sequence string: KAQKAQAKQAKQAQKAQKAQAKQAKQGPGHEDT [p77, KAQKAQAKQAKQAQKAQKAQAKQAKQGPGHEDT]
ka, M⁻¹ s⁻¹: 1.96e+08

Sequence string: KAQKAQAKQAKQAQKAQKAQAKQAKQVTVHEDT [p78, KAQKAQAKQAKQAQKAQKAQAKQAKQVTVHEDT]
ka, M⁻¹ s⁻¹: 1.29e+07

Sequence string: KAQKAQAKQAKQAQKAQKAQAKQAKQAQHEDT [p75, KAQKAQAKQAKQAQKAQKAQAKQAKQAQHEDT]
ka, M⁻¹ s⁻¹: 5.95e+06

Where do the numbers come from? From patent US10046050B2.
